Source: ChEMBL document CHEMBL5032510

Target Under Test: Mucosa-associated lymphoid tissue lymphoma translocation protein 1 (Homo sapiens)
Sequence (Q9UDY8 whole entry, the tested form may be a part): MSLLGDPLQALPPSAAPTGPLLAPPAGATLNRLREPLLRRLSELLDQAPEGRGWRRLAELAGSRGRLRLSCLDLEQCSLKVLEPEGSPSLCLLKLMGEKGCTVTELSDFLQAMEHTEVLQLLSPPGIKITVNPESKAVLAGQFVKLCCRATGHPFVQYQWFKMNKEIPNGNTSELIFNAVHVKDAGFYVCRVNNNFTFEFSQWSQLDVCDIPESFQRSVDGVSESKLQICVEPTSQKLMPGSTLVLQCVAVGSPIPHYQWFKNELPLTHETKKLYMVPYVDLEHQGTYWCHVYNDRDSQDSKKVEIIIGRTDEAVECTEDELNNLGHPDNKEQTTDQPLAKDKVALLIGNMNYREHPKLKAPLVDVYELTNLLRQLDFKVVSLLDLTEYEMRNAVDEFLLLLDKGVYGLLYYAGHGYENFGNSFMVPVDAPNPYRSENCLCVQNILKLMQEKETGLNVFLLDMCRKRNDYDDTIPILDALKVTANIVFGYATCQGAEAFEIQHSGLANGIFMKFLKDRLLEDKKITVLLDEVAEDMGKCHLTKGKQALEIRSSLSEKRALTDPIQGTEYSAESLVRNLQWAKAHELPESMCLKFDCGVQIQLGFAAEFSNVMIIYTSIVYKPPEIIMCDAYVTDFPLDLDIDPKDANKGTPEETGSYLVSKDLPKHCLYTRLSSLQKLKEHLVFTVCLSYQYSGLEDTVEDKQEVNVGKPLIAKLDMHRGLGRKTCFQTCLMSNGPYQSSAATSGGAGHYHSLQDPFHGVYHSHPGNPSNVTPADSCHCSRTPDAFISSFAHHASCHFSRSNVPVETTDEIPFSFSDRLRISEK
Test Description: Inhibition of N-terminal his-tagged GCN4 leucine zipper fused human MALT1 […] expressed in Escherichia coli using Ac-LVSR-AMC as substrate by HTS assay
Decide using IC50 alone. Strictly below 3 µM: Y. Equal to or above 3 µM: N.

The examples below pair each entry with its known result.
1) O=C(NCc1ccccc1Cl)c1sc(=S)n2c1[nH]c(=O)c1cc(Cl)ccc12
N
2) COc1ccc(OC)c(NC(=O)c2sc(=S)n3c2[nH]c(=O)c2cc(OC)c(OC)cc23)c1
N
3) COc1cccc(NC(=O)c2sc(=S)n3c2[nH]c(=O)c2ccccc23)c1
N

Task: State whether 3 µM exceeds IC50 recorded for "O=C(Nc1ccc([N+](=O)[O-])cc1)c1sc(=S)n2c1[nH]c(=O)c1ccc(Cl)cc12" .
Result: Y

Task: Just wondering, is IC50 of "COc1ccc(OC)c(NC(=O)c2sc(=S)n3c2[nH]c(=O)c2ccc(Br)cc23)c1" below 3 µM?
Result: N

Task: Regarding "COc1ccc(OC)c(NC(=O)c2sc(=S)n(-c3cccc(F)c3)c2NC(=O)CCl)c1" , kindly confirm whether its IC50 is beneath 3 µM.
Result: N

Task: Find out if reported IC50 for "COc1ccc(OC)c(NC(=O)c2sc(=S)n3c2[nH]c(=O)c2cc(OC)ccc23)c1" is less than 3 µM
Result: N

Task: Just wondering, is IC50 of "Cc1ccc(NC(=O)c2sc(=S)n3c2[nH]c(=O)c2cc(Br)ccc23)c(C)c1" below 3 µM?
Result: N

Task: Threshold test, IC50 < 3 µM: "COC(=O)c1ccc2c(=O)[nH]c3c(C(=O)Nc4cc(Cl)cc(Cl)c4)sc(=S)n3c2c1"
Result: Y

Task: I wonder whether "COc1ccc(NC(=O)c2sc(=S)n3c2[nH]c(=O)c2ccccc23)cc1" has IC50 below 3 µM. Can you tell?
Result: N

Task: Please indicate whether the reported IC50 of "COC(=O)c1ccc2c(=O)[nH]c3c(C(=O)Nc4ccc([N+](=O)[O-])cc4)sc(=S)n3c2c1" is strictly below 3 µM.
Result: N
